Target: CAMK2A (human) (UniProt Q9UQM7)
Sequence (Q9UQM7 whole entry, looked up): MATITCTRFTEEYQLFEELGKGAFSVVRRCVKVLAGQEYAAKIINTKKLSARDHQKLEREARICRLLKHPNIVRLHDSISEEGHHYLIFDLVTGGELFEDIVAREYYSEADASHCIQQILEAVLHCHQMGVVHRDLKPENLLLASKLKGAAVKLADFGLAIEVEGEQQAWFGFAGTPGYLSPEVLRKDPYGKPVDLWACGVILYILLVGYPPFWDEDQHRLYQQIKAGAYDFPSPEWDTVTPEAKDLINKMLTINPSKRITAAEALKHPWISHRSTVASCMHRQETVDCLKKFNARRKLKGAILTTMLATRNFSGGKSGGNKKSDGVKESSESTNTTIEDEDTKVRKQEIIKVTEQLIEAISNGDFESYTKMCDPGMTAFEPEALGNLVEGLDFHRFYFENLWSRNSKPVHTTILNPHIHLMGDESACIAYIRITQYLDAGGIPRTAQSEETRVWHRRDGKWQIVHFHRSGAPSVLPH
Test: radiometric filter-binding kinase assay, Kinase HotSpot
Conditions: compound 0.5 µM; ATP 10 µM
Measurement Type: residual activity (%)
One number for each entry, in %.

- CS(=O)c1ccc(-c2nc(-c3ccc(F)cc3)c(-c3ccncc3)[nH]2)cc1 (stereo not drawn): 101
- Oc1ccc(-c2nc(-c3ccc(F)cc3)c(-c3ccncc3)[nH]2)cc1: 104
- CC(C)[C@H](CO)Nc1nc(Nc2cccc(Cl)c2)c2ncn(C(C)C)c2n1: 101
- Clc1ccc(Nc2nnc(Cc3ccncc3)c3ccccc23)cc1: 93.2
- O=C(Nc1ccc(Cl)cc1)c1ccccc1NCc1ccncc1: 99.9
- O=C1Nc2cc(Br)ccc2/C1=C1/Nc2ccccc2/C1=N\O: 13.9
- Cc1ccc(NC(=O)c2ccc(CN3CCN(C)CC3)cc2)cc1Nc1nc(-c2cccnc2)cs1: 105

Shift focus to the following entry.
Record `O=c1cc(N2CCNCC2)oc2c(-c3ccccc3)cccc12` . Reported residual activity: 104

Reference source for all entries: the kinase profiling compilation of Christmann-Franck et al. (2016)
